B1: LINE1-full (parent)
chain: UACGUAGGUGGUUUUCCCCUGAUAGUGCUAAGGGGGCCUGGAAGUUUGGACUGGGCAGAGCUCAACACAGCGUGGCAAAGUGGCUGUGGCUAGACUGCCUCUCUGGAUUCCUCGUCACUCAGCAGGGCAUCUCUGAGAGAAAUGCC

Variants of: B1
Assay: self-cleavage, relative activity (ratio to wild type); higher = more cleavage; in vitro, sequencing; the parent is a self-cleaving ribozyme
// classify(record): look up self-cleavage in ranges lower range (below 0.6), middle range (0.6 to below 1), upper range (1 or more)

Here's what some known entries look like.
Variant name: U5C G60A
Answer label: lower range

Variant name: U46C C68U
Answer label: lower range

Variant name: U15A A69U
Answer label: lower range

Variant name: C56U U112A
Answer label: lower range

Textbook exercise: identify the category of the variant given here, U52A A57G , according to its measured value.
middle range

Next entry: G105C U132C
upper range

Next entry: U23A U46C
upper range

Next entry: C61A A78G
lower range

Next entry: A57U U119C
lower range

Next entry: C19A U62A
lower range

Next entry: U29C A67U
lower range

Next entry: G36C C146U
upper range

Next entry: U52C A65U
lower range

Next entry: U119G U134C
upper range

Next entry: C66U A140G
lower range

Next entry: G35A A136G
upper range

Data credit: the RNAGym collection of RNA variant scans (doi:10.7554/elife.90254)
